Tested on: subcutaneous fat
protocol.notes: Randomized controlled trial in mice, daily percutaneous application to right flank for 24 days (Example 1)
Assay type: in vivo, C57BL/6J mice
condition.details: 5 mM in Lipoderm, 0.1 cc to flank daily; Day 0 until Day 24
measured.quantity: Mean weight gain relative to vehicle
Entry format: amount then unit.

Reference set (3 entries):
compound | system.tested | Mean weight gain relative to vehicle
CCc1ccc(CCOc2ccc(CC3SC(=O)NC3=O)cc2)nc1 (stereo not shown) | subcutaneous fat | 112%
CC(=O)O[C@]1(C(C)=O)CC[C@H]2[C@@H]3C=C(C)C4=CC(=O)CC[C@]4(C)[C@H]3CC[C@@]21C [Megestrol acetate] | subcutaneous fat | 120%
O=C1Nc2ccc(Cl)cc2[C@@](C#CC2CC2)(C(F)(F)F)O1 | subcutaneous fat | 92%

// moving on: another record for Mean weight gain relative to vehicle
IN: Quick one: Mean weight gain relative to vehicle of COc1ccc2c(c1)[nH]c1c(C)nccc12 ?
OUT: 102%
